System: NCI-H1299
Assay: relative viability (nuclei count vs DMSO), 5 days (fraction); higher = more cells survive
Details: first compound 0.005 µM
Quick list: relative viability per entry.
// response body must contain only the number

COc1cc2nccc(Oc3ccc(NC(=O)Nc4cc(C)on4)c(Cl)c3)c2cc1OC [Tivozanib] + CC1(C)CCC(c2ccc(Cl)cc2)=C(CN2CCN(c3ccc(C(=O)NS(=O)(=O)c4ccc(N[C@H](CCN5CCOCC5)CSc5ccccc5)c(S(=O)(=O)C(F)(F)F)c4)cc3)CC2)C1 [Navitoclax] (partner 0.5 µM); 1.03
Nc1ccn([C@@H]2O[C@H](CO)[C@@H](O)[C@@H]2O)c(=O)n1 [Cytarabine] + CS(=O)(=O)N1CCN(Cc2cc3nc(-c4cccc5[nH]ncc45)nc(N4CCOCC4)c3s2)CC1 [Pictilisib] (partner 1 µM); 0.819
COc1cc2nccc(Oc3ccc(NC(=O)Nc4cc(C)on4)c(Cl)c3)c2cc1OC [Tivozanib] + CC(C)C[C@H](NC(=O)[C@H](Cc1ccccc1)NC(=O)c1cnccn1)B(O)O [Bortezomib] (partner 0.002 µM); 1.05

We now examine a further compound.
Inquiry: Output reported relative viability of the compound Nc1ccn([C@@H]2O[C@H](CO)[C@@H](O)[C@@H]2O)c(=O)n1 [Cytarabine] + CC(C)C[C@H](NC(=O)[C@H](Cc1ccccc1)NC(=O)c1cnccn1)B(O)O [Bortezomib] (partner 0.002 µM) on NCI-H1299.
Reply text: 1.01

====

Test system: H3255
Assay: relative viability (nuclei count vs DMSO), 5 days (fraction); higher = more cells survive
Conditions: first compound 0.05 µM
measured-quantity: relative viability
// response body must contain only the number

Consider the worked cases shown below.
Nc1ccn([C@@H]2O[C@H](CO)[C@@H](O)[C@@H]2O)c(=O)n1 [Cytarabine] + COc1cc2c(Oc3ccc(NC(=O)C4(C(=O)Nc5ccc(F)cc5)CC4)cc3F)ccnc2cc1OCCCN1CCOCC1 [Foretinib] (partner 0.25 µM); 0.628
COc1cc2nccc(Oc3ccc(NC(=O)Nc4cc(C)on4)c(Cl)c3)c2cc1OC [Tivozanib] + NC(=O)Nc1cc(-c2cccc(F)c2)sc1C(=O)N[C@H]1CCCNC1 [AZD7762] (partner 0.2 µM); 0.961
Nc1ccn([C@@H]2O[C@H](CO)[C@@H](O)[C@@H]2O)c(=O)n1 [Cytarabine] + Cc1nc(NC(=O)N2CCC[C@H]2C(N)=O)sc1-c1ccnc(C(C)(C)C(F)(F)F)c1 [Alpelisib] (partner 2 µM); 0.566

We now examine a further molecule.
Inquiry: Fill in relative viability for record COc1cc2nccc(Oc3ccc(NC(=O)Nc4cc(C)on4)c(Cl)c3)c2cc1OC [Tivozanib] + Nc1nc2[nH]cc(CCc3ccc(C(=O)N[C@@H](CCC(=O)O)C(=O)O)cc3)c2c(=O)[nH]1 [Pemetrexed] (partner 0.2 µM)
Reply text: 0.583

====

Test system: HOP-62
Assay: relative viability (nuclei count vs DMSO), 5 days (fraction); higher = more cells survive
Conditions: first compound 0.1581 µM
API: label(entry) gives Yes if the entry's relative viability is strictly smaller than 0.4; on equality or larger values it gives No.

Past entries and their recorded results:
Nc1ccn([C@@H]2O[C@H](CO)[C@@H](O)[C@@H]2O)c(=O)n1 [Cytarabine] + CS(=O)(=O)CCNCc1ccc(-c2ccc3ncnc(Nc4ccc(OCc5cccc(F)c5)c(Cl)c4)c3c2)o1 [Lapatinib] (partner 2 µM); Yes
Nc1ccn([C@@H]2O[C@H](CO)[C@@H](O)[C@@H]2O)c(=O)n1 [Cytarabine] + CCNC(=O)c1noc(-c2cc(C(C)C)c(O)cc2O)c1-c1ccc(CN2CCOCC2)cc1 [Luminespib] (partner 0.01 µM); Yes
COc1cc2nccc(Oc3ccc(NC(=O)Nc4cc(C)on4)c(Cl)c3)c2cc1OC [Tivozanib] + Cc1nc(Nc2ncc(C(=O)Nc3c(C)cccc3Cl)s2)cc(N2CCN(CCO)CC2)n1 [Dasatinib] (partner 0.075 µM); No
COc1cc2nccc(Oc3ccc(NC(=O)Nc4cc(C)on4)c(Cl)c3)c2cc1OC [Tivozanib] + O=C(CCCCCCC(=O)Nc1ccccc1)NO [Vorinostat] (partner 1 µM); Yes
Nc1ccn([C@@H]2O[C@H](CO)[C@@H](O)[C@@H]2O)c(=O)n1 [Cytarabine] + CC1(C)CCC(c2ccc(Cl)cc2)=C(CN2CCN(c3ccc(C(=O)NS(=O)(=O)c4ccc(N[C@H](CCN5CCOCC5)CSc5ccccc5)c(S(=O)(=O)C(F)(F)F)c4)cc3)CC2)C1 [Navitoclax] (partner 0.5 µM); Yes

Inquiry: Identify whether the compound Nc1ccn([C@@H]2O[C@H](CO)[C@@H](O)[C@@H]2O)c(=O)n1 [Cytarabine] + Cc1nc(Nc2ncc(C(=O)Nc3c(C)cccc3Cl)s2)cc(N2CCN(CCO)CC2)n1 [Dasatinib] (partner 0.075 µM) records relative viability below 0.4.
Reply text: Yes

Inquiry: Identify whether the compound COc1cc2nccc(Oc3ccc(NC(=O)Nc4cc(C)on4)c(Cl)c3)c2cc1OC [Tivozanib] + CC(=O)Nc1cccc(-n2c(=O)n(C3CC3)c(=O)c3c(Nc4ccc(I)cc4F)n(C)c(=O)c(C)c32)c1 [Trametinib] (partner 0.02 µM) records relative viability below 0.4.
Reply text: Yes

Inquiry: Identify whether the compound COc1cc2nccc(Oc3ccc(NC(=O)Nc4cc(C)on4)c(Cl)c3)c2cc1OC [Tivozanib] + CC(C)C[C@H](NC(=O)[C@H](Cc1ccccc1)NC(=O)c1cnccn1)B(O)O [Bortezomib] (partner 0.002 µM) records relative viability below 0.4.
Reply text: No

Inquiry: Identify whether the compound Nc1ccn([C@@H]2O[C@H](CO)[C@@H](O)[C@@H]2O)c(=O)n1 [Cytarabine] + O=C(c1cc(Cc2n[nH]c(=O)c3ccccc23)ccc1F)N1CCN(C(=O)C2CC2)CC1 [Olaparib] (partner 8 µM) records relative viability below 0.4.
Reply text: Yes
